# credit: PubChem BioAssay AID1963438

# Lookup of reported IC50 keyed by entry
- Test system: NCI-H510 multicellular tumor spheroid growth, % test/control
- assayInfo: Anticancer human tumor NCI-H510 cell line growth inhibition [Asc];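 note: spheroids exposed to agents for 7 days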
- conditionDescription: curve of first compound; second compound 0.01 µM
- Description: Multicellular complex tumor spheroid response to apoptosis pathway targeting inhibitors Alrizomadlin, Pelcitoclax, and Dasminapant in combination with a variety of drugs and investigational agents in selected tumor cell lines […] Compounds. […] If the clinical Cmax for an agent had not been determined, the highest concentration tested was 10 microM. […]

Known IC50 results, listed for orientation:
* O=C(c1ccc(F)c(F)c1Nc1ccc(I)cc1F)N1CC(O)([C@@H]2CCCCN2)C1 + CNC(C)C(=O)NC1CN(S(=O)(=O)c2cccc(S(=O)(=O)N3CCC4CCC(C(=O)NC(c5ccccc5)c5ccccc5)N4C(=O)C(NC(=O)C(C)NC)C3)c2)CCC2CCC(C(=O)NC(c3ccccc3)c3ccccc3)N2C1=O | > 1000 nM
* C=C(F)C(=O)N1CCN(c2nc(OCC3CCCN3C)nc3c2CCN(c2cccc4cccc(Cl)c24)C3)CC1CC#N (centres undefined) + CNC(C)C(=O)NC1CN(S(=O)(=O)c2cccc(S(=O)(=O)N3CCC4CCC(C(=O)NC(c5ccccc5)c5ccccc5)N4C(=O)C(NC(=O)C(C)NC)C3)c2)CCC2CCC(C(=O)NC(c3ccccc3)c3ccccc3)N2C1=O | 1960 nM

Notebook: pull reported IC50 for NCI-H510 multicellular tumor spheroid growth, % test/control, entry NC(=O)C(=Cn1cnc(-c2cc(C(F)(F)F)cc(C(F)(F)F)c2)n1)c1cncnc1 + CNC(C)C(=O)NC1CN(S(=O)(=O)c2cccc(S(=O)(=O)N3CCC4CCC(C(=O)NC(c5ccccc5)c5ccccc5)N4C(=O)C(NC(=O)C(C)NC)C3)c2)CCC2CCC(C(=O)NC(c3ccccc3)c3ccccc3)N2C1=O
> 300 nM

Cc1nc(N2CCC3(CC2)COC(C)C3N)c(CO)nc1Sc1ccnc(N)c1Cl (centres undefined) + CNC(C)C(=O)NC1CN(S(=O)(=O)c2cccc(S(=O)(=O)N3CCC4CCC(C(=O)NC(c5ccccc5)c5ccccc5)N4C(=O)C(NC(=O)C(C)NC)C3)c2)CCC2CCC(C(=O)NC(c3ccccc3)c3ccccc3)N2C1=O ?
> 3000 nM

* * *

Some compounds, each annotated with its measured viability, T/C.
- Test system: NCI-H510 multicellular tumor spheroid growth, % test/control
- assayInfo: Anticancer human tumor NCI-H510 cell line growth inhibition [Asc];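 note: spheroids exposed to agents for 7 days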;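 for viability, T/C: 100% = DMSO vehicle control wells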
- conditionDescription: second compound 0.0949 µM; first compound 1 µM; stronger effect = lower value
Return type: number; implicit unit %.

Record excerpt, results attached:
* C=CC(=O)N1CCN(c2nc(=O)n(-c3c(C)ccnc3C(C)C)c3nc(-c4c(O)cccc4F)c(F)cc23)C(C)C1 (stereo not drawn) + CCN1C(C(=O)NC23CCC(C(=O)O)(CC2)CC3)C(c2cccc(Cl)c2F)C2(C(=O)Nc3cc(Cl)ccc32)C12CCCCC2 | 105
* CCN1CCN(Cc2ccc(Nc3ncc(F)c(-c4cc(F)c5nc(C)n(C(C)C)c5c4)n3)nc2)CC1 + CCN1C(C(=O)NC23CCC(C(=O)O)(CC2)CC3)C(c2cccc(Cl)c2F)C2(C(=O)Nc3cc(Cl)ccc32)C12CCCCC2 | 87.5
* C=C(F)C(=O)N1CCN(c2nc(OCC3CCCN3C)nc3c2CCN(c2cccc4cccc(Cl)c24)C3)CC1CC#N (stereo not drawn) + CCN1C(C(=O)NC23CCC(C(=O)O)(CC2)CC3)C(c2cccc(Cl)c2F)C2(C(=O)Nc3cc(Cl)ccc32)C12CCCCC2 | 54.6
* COc1c(OCCCN2CCOCC2)ccc2c3n(c(=NC(=O)c4cnc(N)nc4)nc12)CCN3 + CCN1C(C(=O)NC23CCC(C(=O)O)(CC2)CC3)C(c2cccc(Cl)c2F)C2(C(=O)Nc3cc(Cl)ccc32)C12CCCCC2 | 65.6
* O=C(c1ccc(F)c(F)c1Nc1ccc(I)cc1F)N1CC(O)([C@@H]2CCCCN2)C1 + CCN1C(C(=O)NC23CCC(C(=O)O)(CC2)CC3)C(c2cccc(Cl)c2F)C2(C(=O)Nc3cc(Cl)ccc32)C12CCCCC2 | 116

What value of viability, T/C has been recorded for this entry: CNC(C)C(=O)NC1CN(S(=O)(=O)c2cccc(S(=O)(=O)N3CCC4CCC(C(=O)NC(c5ccccc5)c5ccccc5)N4C(=O)C(NC(=O)C(C)NC)C3)c2)CCC2CCC(C(=O)NC(c3ccccc3)c3ccccc3)N2C1=O (stereo not drawn) + CCN1C(C(=O)NC23CCC(C(=O)O)(CC2)CC3)C(c2cccc(Cl)c2F)C2(C(=O)Nc3cc(Cl)ccc32)C12CCCCC2
83.5

Please do the same for C#Cc1c(F)ccc2cc(O)cc(-c3ncc4c(N5CC6CCC(C5)N6)nc(OCC56CCCN5CC(F)C6)nc4c3F)c12 (stereo not drawn) + CCN1C(C(=O)NC23CCC(C(=O)O)(CC2)CC3)C(c2cccc(Cl)c2F)C2(C(=O)Nc3cc(Cl)ccc32)C12CCCCC2 as well.
100

Now consider O=C(c1cc(Cc2n[nH]c(=O)c3ccccc23)ccc1F)N1CCN(C(=O)C2CC2)CC1 + CCN1C(C(=O)NC23CCC(C(=O)O)(CC2)CC3)C(c2cccc(Cl)c2F)C2(C(=O)Nc3cc(Cl)ccc32)C12CCCCC2 .
77.5

* * *

# viability, T/C values compiled below
- Test system: NCI-H510 multicellular tumor spheroid growth, % test/control
- assayInfo: Anticancer human tumor NCI-H510 cell line growth inhibition [Asc];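 note: spheroids exposed to agents for 7 days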;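 for viability, T/C: 100% = DMSO vehicle control wells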
- conditionDescription: second compound 10 µM; first compound 0.316 µM; stronger effect = lower value
- Source text: Multicellular complex tumor spheroid response to apoptosis pathway targeting inhibitors Alrizomadlin, Pelcitoclax, and Dasminapant in combination with a variety of drugs and investigational agents in selected tumor cell lines […] Compounds. […] If the clinical Cmax for an agent had not been determined, the highest concentration tested was 10 microM. […]
A number alone suffices; assume %.

• C=CC(=O)N1CCN(c2nc(=O)n(-c3c(C)ccnc3C(C)C)c3nc(-c4c(O)cccc4F)c(F)cc23)C(C)C1 (stereo unspecified) + Cc1c(S(C)(=O)=O)c(-c2cc(F)cc(N3CCN(c4ccc(NS(=O)(=O)c5ccc(NC(CCN6CCC(C(=O)OCCCP(=O)(O)O)CC6)CSc6ccccc6)c(S(=O)(=O)C(F)(F)F)c5)cc4)CC3)c2)c(-c2ccc(Cl)cc2)n1C(C)C = 97.8
• C=C(F)C(=O)N1CCN(c2nc(OCC3CCCN3C)nc3c2CCN(c2cccc4cccc(Cl)c24)C3)CC1CC#N (stereo unspecified) + Cc1c(S(C)(=O)=O)c(-c2cc(F)cc(N3CCN(c4ccc(NS(=O)(=O)c5ccc(NC(CCN6CCC(C(=O)OCCCP(=O)(O)O)CC6)CSc6ccccc6)c(S(=O)(=O)C(F)(F)F)c5)cc4)CC3)c2)c(-c2ccc(Cl)cc2)n1C(C)C = 80.6
• O=C(c1cc(Cc2n[nH]c(=O)c3ccccc23)ccc1F)N1CCN(C(=O)C2CC2)CC1 + Cc1c(S(C)(=O)=O)c(-c2cc(F)cc(N3CCN(c4ccc(NS(=O)(=O)c5ccc(NC(CCN6CCC(C(=O)OCCCP(=O)(O)O)CC6)CSc6ccccc6)c(S(=O)(=O)C(F)(F)F)c5)cc4)CC3)c2)c(-c2ccc(Cl)cc2)n1C(C)C = 81.5
• O=C(c1ccc(F)c(F)c1Nc1ccc(I)cc1F)N1CC(O)([C@@H]2CCCCN2)C1 + Cc1c(S(C)(=O)=O)c(-c2cc(F)cc(N3CCN(c4ccc(NS(=O)(=O)c5ccc(NC(CCN6CCC(C(=O)OCCCP(=O)(O)O)CC6)CSc6ccccc6)c(S(=O)(=O)C(F)(F)F)c5)cc4)CC3)c2)c(-c2ccc(Cl)cc2)n1C(C)C = 78.3
• CCN1CCN(Cc2ccc(Nc3ncc(F)c(-c4cc(F)c5nc(C)n(C(C)C)c5c4)n3)nc2)CC1 + Cc1c(S(C)(=O)=O)c(-c2cc(F)cc(N3CCN(c4ccc(NS(=O)(=O)c5ccc(NC(CCN6CCC(C(=O)OCCCP(=O)(O)O)CC6)CSc6ccccc6)c(S(=O)(=O)C(F)(F)F)c5)cc4)CC3)c2)c(-c2ccc(Cl)cc2)n1C(C)C = 56.9

Pending molecule:
Could you tell me which viability, T/C is on file for C#Cc1c(F)ccc2cc(O)cc(-c3ncc4c(N5CC6CCC(C5)N6)nc(OCC56CCCN5CC(F)C6)nc4c3F)c12 (stereo unspecified) + Cc1c(S(C)(=O)=O)c(-c2cc(F)cc(N3CCN(c4ccc(NS(=O)(=O)c5ccc(NC(CCN6CCC(C(=O)OCCCP(=O)(O)O)CC6)CSc6ccccc6)c(S(=O)(=O)C(F)(F)F)c5)cc4)CC3)c2)c(-c2ccc(Cl)cc2)n1C(C)C ?
113

* * *

Property: viability, T/C; scope: individual molecules
- Tested on: NCI-H510 multicellular tumor spheroid growth, % test/control
- assayInfo: Anticancer human tumor NCI-H510 cell line growth inhibition [Asc];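 note: spheroids exposed to agents for 7 days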;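 for viability, T/C: 100% = DMSO vehicle control wells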
- conditionDescription: second compound 0.01 µM; first compound 1 µM; stronger effect = lower value
Write the value in % as a bare number.

Known results for molecules:
• CCN1CCN(Cc2ccc(Nc3ncc(F)c(-c4cc(F)c5nc(C)n(C(C)C)c5c4)n3)nc2)CC1 + CNC(C)C(=O)NC1CN(S(=O)(=O)c2cccc(S(=O)(=O)N3CCC4CCC(C(=O)NC(c5ccccc5)c5ccccc5)N4C(=O)C(NC(=O)C(C)NC)C3)c2)CCC2CCC(C(=O)NC(c3ccccc3)c3ccccc3)N2C1=O = 128
• COc1c(OCCCN2CCOCC2)ccc2c3n(c(=NC(=O)c4cnc(N)nc4)nc12)CCN3 + CNC(C)C(=O)NC1CN(S(=O)(=O)c2cccc(S(=O)(=O)N3CCC4CCC(C(=O)NC(c5ccccc5)c5ccccc5)N4C(=O)C(NC(=O)C(C)NC)C3)c2)CCC2CCC(C(=O)NC(c3ccccc3)c3ccccc3)N2C1=O = 128
• C=CC(=O)N1CCN(c2nc(=O)n(-c3c(C)ccnc3C(C)C)c3nc(-c4c(O)cccc4F)c(F)cc23)C(C)C1 (configuration not stated) + CNC(C)C(=O)NC1CN(S(=O)(=O)c2cccc(S(=O)(=O)N3CCC4CCC(C(=O)NC(c5ccccc5)c5ccccc5)N4C(=O)C(NC(=O)C(C)NC)C3)c2)CCC2CCC(C(=O)NC(c3ccccc3)c3ccccc3)N2C1=O = 115
• C=C(F)C(=O)N1CCN(c2nc(OCC3CCCN3C)nc3c2CCN(c2cccc4cccc(Cl)c24)C3)CC1CC#N (configuration not stated) + CNC(C)C(=O)NC1CN(S(=O)(=O)c2cccc(S(=O)(=O)N3CCC4CCC(C(=O)NC(c5ccccc5)c5ccccc5)N4C(=O)C(NC(=O)C(C)NC)C3)c2)CCC2CCC(C(=O)NC(c3ccccc3)c3ccccc3)N2C1=O = 116
• O=C(c1cc(Cc2n[nH]c(=O)c3ccccc23)ccc1F)N1CCN(C(=O)C2CC2)CC1 + CNC(C)C(=O)NC1CN(S(=O)(=O)c2cccc(S(=O)(=O)N3CCC4CCC(C(=O)NC(c5ccccc5)c5ccccc5)N4C(=O)C(NC(=O)C(C)NC)C3)c2)CCC2CCC(C(=O)NC(c3ccccc3)c3ccccc3)N2C1=O = 91.7

Give the measured viability, T/C of C#Cc1c(F)ccc2cc(O)cc(-c3ncc4c(N5CC6CCC(C5)N6)nc(OCC56CCCN5CC(F)C6)nc4c3F)c12 (configuration not stated) + CNC(C)C(=O)NC1CN(S(=O)(=O)c2cccc(S(=O)(=O)N3CCC4CCC(C(=O)NC(c5ccccc5)c5ccccc5)N4C(=O)C(NC(=O)C(C)NC)C3)c2)CCC2CCC(C(=O)NC(c3ccccc3)c3ccccc3)N2C1=O .
99.7

Do the same for O=C(c1ccc(F)c(F)c1Nc1ccc(I)cc1F)N1CC(O)([C@@H]2CCCCN2)C1 + CNC(C)C(=O)NC1CN(S(=O)(=O)c2cccc(S(=O)(=O)N3CCC4CCC(C(=O)NC(c5ccccc5)c5ccccc5)N4C(=O)C(NC(=O)C(C)NC)C3)c2)CCC2CCC(C(=O)NC(c3ccccc3)c3ccccc3)N2C1=O please
79.6
